molecular target: delF508-CFTR-HRP (Homo sapiens, UniProt P13569, DEL508-508); construct: expressed in transfected cells; experiment: Measurement of delF508-CFTR-HRP surface expression in CFBE41o- cells (HRP luminescence); format: cell-based; settings: mean of at least two replicates
Sequence (P13569 with tags, fused parts or gaps DEL508-508): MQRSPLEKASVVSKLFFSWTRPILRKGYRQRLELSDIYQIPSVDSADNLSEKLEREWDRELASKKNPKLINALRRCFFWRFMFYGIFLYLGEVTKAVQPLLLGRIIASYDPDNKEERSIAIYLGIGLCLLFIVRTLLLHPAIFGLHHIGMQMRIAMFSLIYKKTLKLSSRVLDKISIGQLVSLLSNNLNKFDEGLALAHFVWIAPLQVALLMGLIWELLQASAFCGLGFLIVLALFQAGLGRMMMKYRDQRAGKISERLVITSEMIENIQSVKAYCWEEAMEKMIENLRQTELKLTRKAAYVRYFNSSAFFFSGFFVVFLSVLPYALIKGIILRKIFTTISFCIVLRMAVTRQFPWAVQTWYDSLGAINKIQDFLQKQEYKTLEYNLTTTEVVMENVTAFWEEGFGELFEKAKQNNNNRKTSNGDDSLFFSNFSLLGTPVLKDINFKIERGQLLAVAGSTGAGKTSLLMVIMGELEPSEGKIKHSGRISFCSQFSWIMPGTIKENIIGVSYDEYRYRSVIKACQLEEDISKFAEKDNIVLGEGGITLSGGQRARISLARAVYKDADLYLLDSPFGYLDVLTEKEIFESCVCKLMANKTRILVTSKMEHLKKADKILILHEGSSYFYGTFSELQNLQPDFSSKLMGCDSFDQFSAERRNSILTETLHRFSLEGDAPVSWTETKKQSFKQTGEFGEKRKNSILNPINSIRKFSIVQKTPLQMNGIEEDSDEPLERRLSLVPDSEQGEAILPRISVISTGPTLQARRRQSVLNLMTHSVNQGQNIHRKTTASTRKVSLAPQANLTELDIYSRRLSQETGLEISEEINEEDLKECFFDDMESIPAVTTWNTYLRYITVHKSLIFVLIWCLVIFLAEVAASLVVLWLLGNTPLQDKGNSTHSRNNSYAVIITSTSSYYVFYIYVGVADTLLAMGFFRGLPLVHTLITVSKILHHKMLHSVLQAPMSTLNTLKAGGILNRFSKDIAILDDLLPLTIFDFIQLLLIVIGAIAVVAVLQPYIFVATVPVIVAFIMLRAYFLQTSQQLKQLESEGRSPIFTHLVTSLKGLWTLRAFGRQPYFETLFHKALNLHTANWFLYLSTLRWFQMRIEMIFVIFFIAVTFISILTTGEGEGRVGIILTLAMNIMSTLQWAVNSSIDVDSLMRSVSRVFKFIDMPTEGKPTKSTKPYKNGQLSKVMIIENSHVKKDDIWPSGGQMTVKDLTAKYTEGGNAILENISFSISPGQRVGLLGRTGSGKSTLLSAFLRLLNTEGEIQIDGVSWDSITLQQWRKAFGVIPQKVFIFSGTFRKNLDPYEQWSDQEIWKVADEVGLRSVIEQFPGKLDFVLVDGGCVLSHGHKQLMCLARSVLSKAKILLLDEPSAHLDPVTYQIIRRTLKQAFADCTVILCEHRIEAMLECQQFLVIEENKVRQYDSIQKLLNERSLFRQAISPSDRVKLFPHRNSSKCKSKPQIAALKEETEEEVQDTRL
MEASURED_ATTRIBUTE: EC50 (nM)

Worked cases, EC50 given:
{"COMPOUND": "Cc1ccc(C2CCCCC2)c(OC2(C(=O)NS(=O)(=O)c3cccc(N4CCC(C(=O)OC5CCCC5)CC4)n3)CC2)c1", "SYSTEM": "delF508-CFTR-HRP (Homo sapiens, UniProt P13569, DEL508-508)", "EC50 [nM]": 730}
{"COMPOUND": "Cc1ccc(C2CCCCC2)c(OC2(C(=O)NS(=O)(=O)c3cccc(N4CCCC(N)C4)n3)CC2)c1 (stereo not drawn)", "SYSTEM": "delF508-CFTR-HRP (Homo sapiens, UniProt P13569, DEL508-508)", "EC50 [nM]": 4610}
{"COMPOUND": "COC1CN(c2cccc(S(=O)(=O)NC(=O)C3(Oc4cc(C)ccc4C4CCCCC4)CC3)n2)C1", "SYSTEM": "delF508-CFTR-HRP (Homo sapiens, UniProt P13569, DEL508-508)", "EC50 [nM]": 1580}

1. Cc1ccc(C2(C(F)(F)F)CC2)c(OC2(C(=O)NS(=O)(=O)c3cccc(N4CC(C)(O)C4)n3)CC2)c1
2. C[C@]1(O)CCN(c2cccc(S(=O)(=O)NC(=O)C3(Oc4cc(Cl)ccc4N4CCC5(CC4)CC5)CC3)n2)C1
3. Cc1ccc(C2CCCCCC2)c(OC2(C(=O)NS(=O)(=O)c3cccc(N)n3)CC2)c1
**Q:** Order the records by EC50, with each subsequent value no larger than the one before. Order the labels as requested and give them as your answer.
**A:** 1, 3, 2
